# test_target: Glutamate NMDA receptor
# run_description: Binding potency for NMDA site of the glutamate receptor complex using rat brain cortical membranes in a competitive binding assay with [3H]CPP as the radioligand
// values below are reported pIC50
For clarity, pIC50 is expressed as the negative log10 of concentration in mol/L.

Reference set, count: 4
C[C@]1(C(=O)CP(=O)(O)O)CCCN[C@H]1C(=O)O ... 6.49
C[C@@H]1CCN[C@@H](C(=O)O)[C@H]1C(=O)CP(=O)(O)O ... 7.82
C[C@]1(C(=O)CP(=O)(O)O)C=CCN[C@H]1C(=O)O ... 8.49
O=C(CP(=O)(O)O)[C@H]1CCCN[C@H]1C(=O)O ... 7.40

Query: Reported pIC50 for O=C(CP(=O)(O)O)C1=CCCN[C@H]1C(=O)O : what is it?
Response: 8.12

Attribution: ChEMBL document CHEMBL1127093
